These measurements were taken from ChEMBL document CHEMBL3727364.

- target.system: [Pyruvate dehydrogenase (acetyl-transferring)] kinase isozyme 1, mitochondrial (Homo sapiens, UniProt Q15118)
- Sequence (Q15118 whole entry): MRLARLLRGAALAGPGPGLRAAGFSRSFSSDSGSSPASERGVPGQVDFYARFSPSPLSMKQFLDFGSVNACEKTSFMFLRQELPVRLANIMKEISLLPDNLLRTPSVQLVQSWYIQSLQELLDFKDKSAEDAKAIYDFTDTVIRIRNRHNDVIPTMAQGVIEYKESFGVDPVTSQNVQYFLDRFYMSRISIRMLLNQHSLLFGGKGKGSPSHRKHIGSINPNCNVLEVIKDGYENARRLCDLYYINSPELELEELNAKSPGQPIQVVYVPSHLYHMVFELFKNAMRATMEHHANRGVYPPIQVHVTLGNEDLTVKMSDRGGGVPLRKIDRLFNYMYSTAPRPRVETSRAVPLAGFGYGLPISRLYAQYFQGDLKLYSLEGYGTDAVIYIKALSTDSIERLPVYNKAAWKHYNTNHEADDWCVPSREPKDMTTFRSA
property.label: IC50 (nM)
Write it as a number; the unit nM goes unstated.

Reference set (8 entries):
O=C(c1ccc(O)cc1O)N(Cc1ccsc1)c1ccc(-c2ncnc3ccsc23)cc1 ... 1000
Cc1cc(S(=O)(=O)NCc2ccccc2)cnc1-c1ccc(N(Cc2ccsc2)C(=O)c2ccc(O)cc2O)cc1 ... 100
COc1ccc(CN(C)C(=O)c2ccc(N(Cc3ccsc3)C(=O)c3cc(Cl)c(O)cc3O)cc2)cc1 ... 100
O=C(c1ccc(O)cc1O)N(Cc1cccnc1)c1ccc(-c2nncc3ccccc23)cc1 ... 100
Cc1cc2ccccc2nc1-c1ccc(N(Cc2cc(F)cc(F)c2)C(=O)c2ccc(O)cc2O)cc1 ... 1000
CC(=O)NCCNS(=O)(=O)c1cnc(-c2ccc(N(Cc3ccccc3)C(=O)c3ccc(O)cc3O)cc2)c(C)c1 ... 10
Cc1cnc(Cl)nc1-c1ccc(N(Cc2ccccc2)C(=O)c2ccc(O)cc2O)cc1F ... 100
COc1cnc(Cl)nc1-c1ccc(N(Cc2ccccc2)C(=O)c2cc(Cl)c(O)cc2O)cc1 ... 100

// next entry
# input Please give the measured IC50 for this compound: `CCc1cnc(C)nc1-c1ccc(N(Cc2ccccc2)C(=O)c2ccc(O)cc2O)cc1`
# output 100

* * *

- target.system: [Pyruvate dehydrogenase (acetyl-transferring)] kinase isozyme 1, mitochondrial (Homo sapiens)
pIC50: recorded values
The meaning of pIC50 here: minus log10 of the concentration in molar units.

Cc1cc(S(=O)(=O)NCc2ccccn2)cnc1-c1ccc(N(Cc2cccnc2)C(=O)c2ccc(O)cc2O)cc1 ... 8.00
O=C(c1ccc(O)cc1O)N(Cc1cccnc1)c1ccc(-c2nc(Cl)nc3[nH]ccc23)cc1 ... 7.00
CCOC(=O)c1nc(C)nc(-c2ccc(N(Cc3cccnc3)C(=O)c3ccc(O)cc3O)cc2)c1C ... 7.00
Cc1cc(S(=O)(=O)N2CCC(F)(F)CC2)cnc1-c1ccc(N(Cc2ccccc2)C(=O)c2ccc(O)cc2O)cc1 ... 6.00
O=C(NCc1ccc(Cl)cc1)c1ccc(N(Cc2cccnc2)C(=O)c2ccc(O)cc2O)cc1 ... 7.00
Cc1cc2cc(F)ccc2nc1-c1ccc(N(Cc2cccnc2)C(=O)c2ccc(O)cc2O)cc1 ... 7.00
COc1ccc(CN(C)C(=O)c2ccc(N(Cc3ccccc3)C(=O)c3cc(Cl)c(O)cc3O)cc2)cc1 ... 7.00
Cc1nc(N(C)C)nc(-c2ccc(N(Cc3cccnc3)C(=O)c3ccc(O)cc3O)cc2)c1C ... 6.00
Cc1cncnc1-c1ccc(N(Cc2ccccc2)C(=O)c2ccc(O)cc2O)cc1 ... 7.00
Cc1cnc(Cl)nc1-c1ccc(N(Cc2cccnc2)C(=O)c2ccc(O)cc2O)cc1 ... 8.00

# input Please give the measured pIC50 for this compound: `CN(Cc1ccc2nccnc2c1)C(=O)c1ccc(N(Cc2cccnc2)C(=O)c2ccc(O)cc2O)cc1`
# output 8.00

# input Please give the measured pIC50 for this compound: `CC(=O)Nc1ccc(-c2ccc(N(Cc3cccnc3)C(=O)c3ccc(O)cc3O)cc2)c(C)c1`
# output 7.00

# input Please give the measured pIC50 for this compound: `CN(Cc1cccs1)C(=O)c1ccc(N(Cc2ccsc2)C(=O)c2ccc(O)cc2O)cc1`
# output 7.00

# input Please give the measured pIC50 for this compound: `O=C(c1ccc(O)cc1O)N(Cc1ccsc1)c1ccc(-c2ncccc2CO)cc1`
# output 7.00

# input Please give the measured pIC50 for this compound: `CCOc1ccc2nc(-c3ccc(N(Cc4ccsc4)C(=O)c4ccc(O)cc4O)cc3)c(C)cc2c1`
# output 6.00

# input Please give the measured pIC50 for this compound: `Cc1cnc(Cl)nc1-c1ccc(N(Cc2ccsc2)C(=O)c2cc(Cl)c(O)cc2O)cc1`
# output 8.00

# input Please give the measured pIC50 for this compound: `O=C(c1ccc(O)cc1O)N(Cc1cccnc1)c1ccc(-c2nc(C(F)(F)F)ccc2C(F)(F)F)cc1`
# output 8.00

# input Please give the measured pIC50 for this compound: `O=C(c1ccc(O)cc1O)N(Cc1cccnc1)c1ccc(-c2ccc(NC3CC3)nn2)cc1`
# output 6.00

# input Please give the measured pIC50 for this compound: `Cc1cc(S(=O)(=O)N2CCOCC2)cnc1-c1ccc(N(Cc2ccccc2)C(=O)c2ccc(O)cc2O)cc1`
# output 7.00

* * *

IC50: recorded values
- target.system: [Pyruvate dehydrogenase (acetyl-transferring)] kinase isozyme 1, mitochondrial (Homo sapiens)
Write it as a number; the unit nM goes unstated.

COc1ccc(CN(C)C(=O)c2ccc(N(Cc3ccsc3)C(=O)c3cc(C)c(O)cc3O)cc2)cc1 ... 10
O=C(c1ccc(O)cc1O)N(Cc1ccccc1)c1ccc(-c2nc(-c3ccsc3)nc3ccccc23)cc1 ... 100

# input Please give the measured IC50 for this molecule: `Cc1c(-c2ccc(N(Cc3ccccc3)C(=O)c3ccc(O)cc3O)cc2)ccc2[nH]ncc12`
# output 1000

# input Please give the measured IC50 for this molecule: `Cc1cc(S(=O)(=O)N2CCN(C)CC2)cnc1-c1ccc(N(Cc2cccnc2)C(=O)c2ccc(O)cc2O)cc1`
# output 10

* * *

- target.system: [Pyruvate dehydrogenase (acetyl-transferring)] kinase isozyme 1, mitochondrial (Homo sapiens)
property.label: pIC50
The meaning of pIC50 here: minus log10 of the concentration in molar units.

Cc1cnc(Cl)nc1-c1ccc(N(Cc2ccc(CN3CCCC3)cc2)C(=O)c2ccc(O)cc2O)cc1 ... 8.00
Cc1cn(-c2ccc(-c3ccc(N(Cc4cccnc4)C(=O)c4ccc(O)cc4O)cc3)nn2)cn1 ... 7.00
O=C(c1ccc(O)cc1O)N(Cc1cccnc1)c1ccc(-c2ncnc3ccc(Cl)cc23)cc1 ... 7.00
O=C(c1ccc(O)cc1O)N(Cc1cccnc1)c1ccc(-c2nc3cc(Cl)ccc3o2)cc1 ... 6.00
O=C(c1ccc(O)cc1O)N(Cc1cccnc1)c1ccc(-c2ccc(N3CCCC3)nn2)cc1 ... 7.00

# input Please give the measured pIC50 for this compound: `COc1ccc(CN(C)C(=O)c2ccc(N(Cc3cc(C)no3)C(=O)c3cc(Cl)c(O)cc3O)cc2)cc1`
# output 7.00

# input Please give the measured pIC50 for this compound: CC(c1ccccc1)N(C(=O)c1ccc(O)cc1O)c1ccc(C(=O)N(C)C)cc1 (centres undefined)
# output 6.00

# input Please give the measured pIC50 for this compound: `COc1ccc2nc(-c3ccc(N(Cc4ccsc4)C(=O)c4ccc(O)cc4O)cc3)c(C)cc2c1`
# output 7.00

# input Please give the measured pIC50 for this compound: `CSc1nc(-c2ccc(N(Cc3cccnc3)C(=O)c3ccc(O)cc3O)cc2)c2cc[nH]c2n1`
# output 7.00

* * *

- target.system: [Pyruvate dehydrogenase (acetyl-transferring)] kinase isozyme 1, mitochondrial (Homo sapiens, UniProt Q15118)
- assay.text: Binding affinity to pyruvate dehydrogenase kinase 1 (unknown origin) incubated for 90 mins by VER-00160364 probe based fluorescence polarization assay
IC50: recorded values
Write it as a number; the unit nM goes unstated.

Cc1c(Cl)nc(Cl)nc1-c1ccc(N(Cc2ccccc2)C(=O)c2ccc(O)cc2O)cc1 ... 1000
CN(Cc1cccc(C(F)(F)F)c1)C(=O)c1ccc(N(Cc2ccccc2)C(=O)c2ccc(O)cc2O)cc1 ... 10000

# input Please give the measured IC50 for this compound: `COc1cnc(Cl)nc1-c1ccc(N(Cc2ccccc2)C(=O)c2cc(C)c(O)cc2O)cc1`
# output 1000

# input Please give the measured IC50 for this compound: `O=C(Nc1ccc(N(Cc2ccccc2)C(=O)c2ccc(O)cc2O)cc1)Nc1cccnc1`
# output 1000

# input Please give the measured IC50 for this compound: `CN(Cc1ccc2nccnc2c1)C(=O)c1ccc(N(Cc2ccsc2)C(=O)c2ccc(O)cc2O)cc1`
# output 10

# input Please give the measured IC50 for this compound: `CS(=O)(=O)Nc1ccc(N(Cc2ccccc2)C(=O)c2ccc(O)cc2O)cc1`
# output 1000

# input Please give the measured IC50 for this compound: `C[C@H](c1ccccc1)N(C(=O)c1cc(Cl)c(O)cc1O)c1ccc(C(=O)N(C)C)cc1`
# output 1000

# input Please give the measured IC50 for this compound: `Cc1cc(Cl)nnc1-c1ccc(N(Cc2ccccc2)C(=O)c2ccc(O)cc2O)cc1`
# output 100

# input Please give the measured IC50 for this compound: `N#Cc1cncnc1-c1ccc(N(Cc2cccnc2)C(=O)c2ccc(O)cc2O)cc1`
# output 100

# input Please give the measured IC50 for this compound: `COCCN(C)S(=O)(=O)c1cnc(-c2ccc(N(Cc3ccccc3)C(=O)c3ccc(O)cc3O)cc2)c(C)c1`
# output 100

# input Please give the measured IC50 for this compound: `CN(Cc1cccc2cnccc12)C(=O)c1ccc(N(Cc2ccsc2)C(=O)c2ccc(O)cc2O)cc1`
# output 10

# input Please give the measured IC50 for this compound: `CCc1cc2ccccc2nc1-c1ccc(N(Cc2cccnc2)C(=O)c2ccc(O)cc2O)cc1`
# output 100

# input Please give the measured IC50 for this compound: `O=C(Nc1ccc(N(Cc2ccccc2)C(=O)c2ccc(O)cc2O)cc1)NC1CCCC1`
# output 10000

# input Please give the measured IC50 for this compound: `Cc1cc(N(Cc2ccccc2)C(=O)c2ccc(O)cc2O)ccc1-c1nc2cc(F)ccc2cc1C`
# output 100

# input Please give the measured IC50 for this compound: `Cc1cnc(C)c(-c2ccc(N(Cc3ccccc3)C(=O)c3ccc(O)cc3O)cc2)n1`
# output 100

# input Please give the measured IC50 for this compound: `CN(C)CCN(C)C(=O)c1ccc(N(Cc2cccnc2)C(=O)c2ccc(O)cc2O)cc1`
# output 1000

# input Please give the measured IC50 for this compound: `CSc1nc(-c2ccc(N(Cc3ccsc3)C(=O)c3ccc(O)cc3O)cc2)c2cc[nH]c2n1`
# output 1000

# input Please give the measured IC50 for this compound: `COc1ccc(-c2ccc(N(Cc3cccnc3)C(=O)c3ccc(O)cc3O)cc2)c(OC)c1`
# output 1000

# input Please give the measured IC50 for this compound: `COc1cnc(Cl)nc1-c1ccc(N(Cc2ccsc2)C(=O)c2ccc(O)cc2O)cc1`
# output 100

# input Please give the measured IC50 for this compound: `COc1cnc(Cl)nc1-c1ccc(N(Cc2ccccc2)C(=O)c2ccc(O)cc2O)cc1`
# output 100

# input Please give the measured IC50 for this compound: `Cc1cc(S(=O)(=O)N2CCN(C)CC2)cnc1-c1ccc(N(Cc2ccccc2)C(=O)c2ccc(O)cc2O)cc1`
# output 10

# input Please give the measured IC50 for this compound: `CCCc1cncnc1-c1ccc(N(Cc2ccccc2)C(=O)c2ccc(O)cc2O)cc1`
# output 1000
